The reported measurements were obtained from patent US20240050428A1.

test system: MV4;11 cells; experiment: Cell viability assay (CellTiter-Glo) in MV4;11 cells, alone or with gilteritinib; assay type: cell-based; conditions: Homo sapiens, MV4-11, 72 h, MV4;11 cells, compound with gilteritinib 10 nM, three days, CellTiter-Glo; read-out: MV4; 11 IC50 gilteritinib
pIC50: −log10 of the molar value.
# reported pIC50; entries follow

compound | pIC50
O=C1CCC(N2C(=O)c3ccc(NC[C@H]4C[C@H](n5cc(C6CCCC6)c(C6CC6)n5)C4)cc3C2=O)C(=O)N1 (stereo partly shown) | 7.00 to 8.00
Cn1ncc2cnc(-c3cn([C@H]4C[C@H](CNc5ccc6c(c5)C(=O)N(C5CCC(=O)NC5=O)C6=O)C4)nc3C3CC3)cc21 (stereo partly shown) | > 8.00
O=C1CCC(N2C(=O)c3ccc(NCCC[C@H]4C[C@H](n5cc(-c6ccc(Cl)cn6)cn5)C4)cc3C2=O)C(=O)N1 (stereo partly shown) | 6.00 to 7.00
Cc1ccc(-c2cnn([C@H]3C[C@H](CCCNc4ccc5c(c4)C(=O)N(C4CCC(=O)NC4=O)C5=O)C3)c2)nc1 (stereo partly shown) | 7.00 to 8.00

====

tested on: MOLM-13 cells; assay: Cell viability assay (CellTiter-Glo) in MOLM-13 cells, alone or with gilteritinib; assay type: cell-based; conditions: Homo sapiens, MOLM-13, 72 h, MOLM-13 cells, with gilteritinib 20 nM, three days, CellTiter-Glo; read-out: MOLM-13 IC50 gilteritinib
quantityMeasured: IC50

compound | quantityMeasured | result
CNc1cccc(-c2cn([C@H]3C[C@H](CNc4ccc5c(c4)C(=O)N(C4CCC(=O)NC4=O)C5=O)C3)nc2C2CC2)n1 (stereo partly shown) [GS-263] | IC50 | 10 to 100 nM
O=C1CCC(N2C(=O)c3ccc(NCCCCCC(=O)N4CCC(n5cc(-c6cnc7cccc(N8CCNCC8)c7n6)cn5)CC4)cc3C2=O)C(=O)N1 (stereo not shown) [GS-035] | IC50 | < 10 nM
O=C(CN1CCC(n2cc(-c3ccc4ccccc4n3)cn2)CC1)NCCCNc1ccc2c(c1)C(=O)N(C1CCC(=O)NC1=O)C2=O (stereo not shown) [GS-317] | IC50 | 100 to 1000 nM
O=C1CCC(N2C(=O)c3ccc(NC[C@H]4C[C@H](n5cc(-c6ncccc6NC6CCNCC6)c(C6CC6)n5)C4)cc3C2=O)C(=O)N1 (stereo partly shown) [GS-304] | IC50 | > 1000 nM

====

tested on: MOLM-13 cells; assay: Cell viability assay (CellTiter-Glo) in MOLM-13 cells, alone or with gilteritinib; format: cell-based; conditions: Homo sapiens, MOLM-13, 72 h, MOLM-13 cells, with gilteritinib 20 nM, three days, CellTiter-Glo; read-out: MOLM-13 IC50 gilteritinib
# reported IC50; entries follow

molecule | IC50
O=C1CCC(N2C(=O)c3ccc(NCCC[C@H]4C[C@@H](n5cc(-c6cnc7ccc(N8CCOCC8)cc7n6)c(C6CC6)n5)C4)cc3C2=O)C(=O)N1 (stereo partly shown) | < 0.01 µM
O=C1CCC(N2Cc3ccc(NCCCC4CC(n5cc(-c6cnc7ccccc7n6)cn5)C4)cc3C2=O)C(=O)N1 (stereo not shown) | > 1 µM
N#Cc1ccc2ncc(-c3cnn(C4CC(CCCNc5ccc6c(c5)C(=O)N(C5CCC(=O)NC5=O)C6=O)C4)c3)nc2c1 (stereo not shown) | < 0.01 µM
O=C1CCC(N2C(=O)c3ccc(NCC4CC(n5cc(-c6cnc7cccc(F)c7n6)cn5)C4)cc3C2=O)C(=O)N1 (stereo not shown) | 0.01 to 0.1 µM
O=C1CCC(N2Cc3c(Nc4ccnc(Nc5cccc(CN6CCC(n7cc(-c8cnc9cccc(Br)c9n8)cn7)CC6)c5)n4)cccc3C2=O)C(=O)N1 (stereo not shown) | 0.01 to 0.1 µM
O=C1CCC(N2Cc3cc(CCCCC4CC(n5cc(-c6cnc7ccccc7n6)cn5)C4)ccc3C2=O)C(=O)N1 (stereo not shown) | > 1 µM
O=C1CCC(N2Cc3c(Nc4ccnc(Nc5ccc(CN6CCC(n7cc(-c8cnc9ccccc9n8)cn7)CC6)cc5)n4)cccc3C2=O)C(=O)N1 (stereo not shown) | 0.01 to 0.1 µM
O=C1CCC(N2C(=O)c3ccc(NCCC[C@H]4C[C@H](n5cc(-c6ncccc6Cl)cn5)C4)cc3C2=O)C(=O)N1 (stereo partly shown) | 0.01 to 0.1 µM
O=C1CCC(N2C(=O)c3ccc(NCCC[C@H]4C[C@H](n5cc(-c6cnc7ccccc7n6)cn5)C4)cc3C2=O)C(=O)N1 (stereo partly shown) | 0.01 to 0.1 µM
O=C1CCC(N2C(=O)c3ccc(NC[C@H]4C[C@H](n5cc(-c6cccc(NC7CCOCC7)n6)cn5)C4)cc3C2=O)C(=O)N1 (stereo partly shown) | 0.01 to 0.1 µM

====

# reported pIC50; entries follow
tested on: MOLM-13 cells; experiment: Cell viability assay (CellTiter-Glo) in MOLM-13 cells, alone or with gilteritinib; assay type: cell-based; conditions: Homo sapiens, MOLM-13, 72 h, MOLM-13 cells, with gilteritinib 20 nM, three days, CellTiter-Glo; read-out: MOLM-13 IC50 gilteritinib
pIC50: −log10 of the molar value.
quantityMeasured: pIC50

molecule | result
O=C1CCC(N2C(=O)c3ccc(NCCC[C@H]4C[C@H](n5cc(-c6cccc(N7CCOCC7)c6)cn5)C4)cc3C2=O)C(=O)N1 (stereo partly shown) | 6.00 to 7.00
O=C1CCC(N2C(=O)c3ccc(NCCCCCC(=O)N4CC(Oc5ccccc5)C4)cc3C2=O)C(=O)N1 (stereo not shown) | 6.00 to 7.00
O=C1CCC(N2C(=O)c3ccc(NCCC[C@H]4C[C@H](n5cc(-c6cnc7ccc(OC8CCNCC8)cc7n6)c(C6CC6)n5)C4)cc3C2=O)C(=O)N1 (stereo partly shown) | > 8.00
O=C1CCC(N2C(=O)c3ccc(NCCCN4CCCC(N5CCN(c6ccccn6)CC5)C4)cc3C2=O)C(=O)N1 (stereo not shown) | > 8.00
O=C1CCC(N2C(=O)c3ccc(NCCCCC(=O)N4CCC(n5cc(-c6cnc7ccccc7n6)cn5)CC45CC5)cc3C2=O)C(=O)N1 (stereo not shown) | 7.00 to 8.00
O=C1CCC(N2Cc3c(Nc4ccnc(NC5CCC(N6CCC(n7cc(-c8cnc9ccccc9n8)cn7)CC6)C5)n4)cccc3C2=O)C(=O)N1 (stereo not shown) | < 6.00
Cc1nn([C@H]2C[C@@H](CCCNc3ccc4c(c3)C(=O)N(C3CCC(=O)NC3=O)C4=O)C2)cc1-c1cnc2ccccc2n1 (stereo partly shown) | 7.00 to 8.00
O=C1CCC(N2C(=O)c3ccc(NCCCC4CC(n5cc(-c6cnc7ccc(N8CCOCC8)cc7n6)cn5)C4)cc3C2=O)C(=O)N1 (stereo not shown) | > 8.00
O=C1CCC(N2C(=O)c3ccc(NCCCCCC(=O)N4CC(Nc5ccccc5)C4)cc3C2=O)C(=O)N1 (stereo not shown) | < 6.00
O=C(CC1CCCC(N2CCC(n3cc(-c4cnc5ccccc5n4)cn3)CC2)C1)NCc1ccc2c(c1)CN(C1CCC(=O)NC1=O)C2=O (stereo not shown) | < 6.00
O=C1CCC(N2C(=O)c3ccc(NC[C@H]4C[C@H](n5cc(-c6ncccc6OC(F)(F)F)c(C6CC6)n5)C4)cc3C2=O)C(=O)N1 (stereo partly shown) | > 8.00
O=C(CC12CC(C(=O)N3CCC(n4cc(-c5cnc6ccccc6n5)cn4)CC3)(C1)C2)NCc1ccc2c(c1)CN(C1CCC(=O)NC1=O)C2=O (stereo not shown) | 6.00 to 7.00
O=C1CCC(N2C(=O)c3ccc(NCCC[C@H]4C[C@@H](n5cc(-c6cnc7ccc(C8CCOCC8)cc7n6)c(C(F)(F)F)n5)C4)cc3C2=O)C(=O)N1 (stereo partly shown) | > 8.00
O=C1CCC(N2C(=O)c3ccc(NC[C@H]4C[C@H](n5cc(-c6cnc7ccccc7n6)cn5)C4)cc3C2=O)C(=O)N1 (stereo partly shown) | 7.00 to 8.00
CN(C)c1ccc(-c2cn([C@H]3C[C@H](CNc4ccc5c(c4)C(=O)N(C4CCC(=O)NC4=O)C5=O)C3)nc2C2CC2)nc1 (stereo partly shown) | 7.00 to 8.00
O=C1CCC(N2C(=O)c3ccc(NCCCCCC(=O)N4CCC(c5cnc6cccc(Br)c6n5)CC4)cc3C2=O)C(=O)N1 (stereo not shown) | > 8.00
O=C1CCC(N2C(=O)c3ccc(NCCCCCC(=O)N4CCC(n5cc(-c6ccccn6)cn5)CC4)cc3C2=O)C(=O)N1 (stereo not shown) | > 8.00
O=C1CCC(N2C(=O)c3ccc(NC[C@H]4C[C@H](n5cc(-c6cnc7ccc(CN8CCNCC8)cc7n6)c(C6CC6)n5)C4)cc3C2=O)C(=O)N1 (stereo partly shown) | 7.00 to 8.00
O=C1CCC(N2Cc3c(csc3CNC(=O)Nc3cccc(N4CCC(n5cc(-c6cnc7ccccc7n6)cn5)CC4)c3)C2=O)C(=O)N1 (stereo not shown) | > 8.00
O=C(CC12CC(N3CCC(n4cc(-c5cnc6ccccc6n5)cn4)CC3)(C1)C2)NCc1ccc2c(c1)CN(C1CCC(=O)NC1=O)C2=O (stereo not shown) | < 6.00
O=C1CCC(N2C(=O)c3ccc(NCCCC4(C(=O)N5CCC(n6cc(-c7cnc8ccccc8n7)cn6)CC5)CC4)cc3C2=O)C(=O)N1 (stereo not shown) | < 6.00
O=C1CCC(N2Cc3c(Nc4ccnc(Nc5cccc(N6CCN(c7ccccn7)CC6)c5)n4)cccc3C2=O)C(=O)N1 (stereo not shown) | > 8.00
